Reference source: paper PMC7826789

System: ADCK4
measurement setup: Compound Concentration (nM):1000;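 also: KINOMEscan scanMAX binding as percent activity remaining versus control; lower means stronger binding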
Listed here: items and their measured Percent Control.
measured property: Percent Control

* Cl.c1ccc(Cc2nc3ccc(Nc4ncnc5ccccc45)cc3[nH]2)cc1 [GR269666A] | 100%
* COc1cc(C=NNc2ncnc3c2cnn3-c2ccccc2)ccc1O [GW513184X] | 0%
* NS(=O)(=O)c1ccc(N/N=C2\C(=O)Nc3ccc(C(=O)NCCc4c[nH]cn4)cc32)cc1 [GW300660X] | 100%

###

Test system: ERK4
Construct: gene MAPK4
measurement setup: Compound Concentration (nM):1000
Item-by-item account of Percent Control
measured property: Percent Control

• CC(C)COC(=O)c1ccc2c(c1)/C(=C/Nc1ccc(S(N)(=O)=O)cc1)C(=O)N2 [GW416981X] = 100%
• NS(=O)(=O)c1ccc(N/N=C2\C(=O)Nc3ccc(C(=O)NCCc4c[nH]cn4)cc32)cc1 [GW300660X] = 100%
• COc1cc(/C=N/Nc2ncnc3[nH]ncc23)ccc1O [GW578748X] = 72%
• COc1cc2ncnc(Nc3ccc4c(cnn4Cc4ccccc4)c3)c2cc1OC.Cl [GW282449A] = 100%
• NS(=O)(=O)c1ccc(Nc2ncc(-c3ccccc3)o2)cc1 [GW572399X] = 100%
• O=C(Nc1n[nH]c2nc(-c3ccc(O)cc3)c(Br)cc12)C1CC1 [SB-725317] = 100%
• CN(C)c1cc2c(Nc3ccc4c(cnn4Cc4ccccc4)c3)ncnc2cn1 [GW282974X] = 100%
• COc1ccc(COc2ccc(Cc3cnc(N)nc3N)cc2OC)cc1 [GW632580X] = 100%
• C[C@@H](Oc1cc(-n2cnc3ccc(OC4CCN(C)CC4)cc32)sc1C(N)=O)c1ccccc1Cl [GSK579289A] = 98%
• Cl.O=S1CCN(Cc2ccc(-c3ccc4ncnc(Nc5ccc(OCc6ccccc6)c(F)c5)c4c3)o2)CC1 [GW576924A] = 100%
• CCc1ccc(Oc2nccc(-c3c(-c4ccc(F)cc4)ncn3C3CCNCC3)n2)cc1 [SB-242719] = 100%

###

Test system: CLK3
measurement setup: Compound Concentration (nM):1000
measured property: Percent Control (%)

- O=C(Nc1n[nH]c2nc(-c3ccc(O)cc3)c(Br)cc12)C1CC1: 100
- NS(=O)(=O)c1ccc(N/N=C2\C(=O)Nc3ccc(-c4cnco4)cc32)cc1: 100
- COc1cc(/C=N/Nc2ncnc3[nH]ncc23)ccc1O [GW578748X]: 85

###

System: YSK1
Construct: gene STK25
measurement setup: Compound Concentration (nM):1000
measured property: Percent Control

* COc1ccc2cc(-c3c(-c4ccncc4)nc(-c4ccc(S(C)(=O)=O)cc4C)n3C)ccc2c1 | 100%
* COc1cccc(-c2c[nH]c3c(N/N=C/c4ccncc4)ncnc23)c1 [GW814408X] | 65%
* Cc1cc(O)cc(C)c1/C=C/c1cncc(C(N)=O)c1 [GW435821X] | 95%
* COc1cc(C=NNc2ncnc3c2cnn3-c2ccccc2)ccc1O [GW513184X] | 97%
* O=C1Nc2ccc(C(=O)c3ccco3)cc2C1=Cc1cc(Cl)c(O)c(Cl)c1 [GW406108X] | 85%
* Cl.O=C(Nc1ccc(Oc2ccc3[nH]c(NC(=O)c4ccco4)nc3c2)cc1)Nc1cc(C(F)(F)F)ccc1F [GW683134A] | 70%
* CCc1ccc(Oc2nccc(-c3c(-c4ccc(F)cc4)ncn3C3CCNCC3)n2)cc1 | 100%
* Nc1ncnc2occ(-c3ccc(NC(=O)Nc4cc(C(F)(F)F)ccc4F)cc3)c12 [GW770249X] | 70%
* CCS(=O)(=O)c1ccc(OC)c(Nc2ncc(-c3cccc(F)c3)o2)c1 [GW621970X] | 79%
* CN(C)c1cc2c(Nc3ccc4c(cnn4Cc4ccccc4)c3)ncnc2cn1 [GW282974X] | 83%
* Cl.O=S1CCN(Cc2ccc(-c3ccc4ncnc(Nc5ccc(OCc6ccccc6)c(F)c5)c4c3)o2)CC1 [GW576924A] | 81%
* NS(=O)(=O)c1ccc(N/N=C2\C(=O)Nc3ccc(C(=O)NCCc4c[nH]cn4)cc32)cc1 [GW300660X] | 84%
* CN1CCN(C(=O)c2ccc(NC(=O)Nc3ccc(N(C)c4ccnc(Nc5ccc(CS(C)(=O)=O)cc5)n4)cc3)cc2)CC1.Cl [GW830263A] | 83%
* Cl.O=C(O[C@H]1CN[C@H](C#Cc2cc3ncnc(Nc4ccc5c(cnn5Cc5ccccc5)c4)c3s2)C1)N1CCOCC1 [GSK200398A] | 79%
* C[C@@H](Oc1cc(-n2cnc3ccc(OC4CCN(C)CC4)cc32)sc1C(N)=O)c1ccccc1Cl [GSK579289A] | 74%
* NS(=O)(=O)c1ccc(N/N=C2\C(=O)Nc3ccc(Cl)cc32)cc1 [GW280670X] | 80%
* CCn1c(-c2nonc2N)nc2c(C#CC(C)(C)O)nc(OCCNC)cc21.Cl | 89%
* COc1ccc2c(-c3ccnc(Nc4cccc(OC(F)(F)F)c4)n3)cnn2n1 [GW810372X] | 85%
* Cl.O=C(Nc1ccc(Oc2ccc3[nH]c(NC(=O)c4ccccc4)nc3c2)cc1)Nc1cc(C(F)(F)F)ccc1F [GW709042A] | 78%
* COc1cc2ncn(-c3cc(O[C@H](C)c4ccccc4Cl)c(C(N)=O)s3)c2cc1OC [GSK237701A] | 78%

###

Tested on: ERBB4
measurement setup: Compound Concentration (nM):1000
measured property: Percent Control (%)

- COC(=O)Nc1nc2ccc(Oc3ccc(NC(=O)Nc4cc(C(F)(F)F)ccc4F)cc3)cc2s1.Cl [GW693917A]: 100
- C[C@@H](Oc1cc(-n2cnc3ccc(OC4CCN(C)CC4)cc32)sc1C(N)=O)c1ccccc1Cl [GSK579289A]: 90
- COc1ccc(COc2ccc(Cc3cnc(N)nc3N)cc2OC)cc1 [GW632580X]: 100
- CN(C)CCNC(=O)Nc1ccc(N(C)c2ccnc(Nc3ccc(CS(C)(=O)=O)cc3)n2)cc1.Cl [GW830900A]: 81
- COc1cc2ncnc(Nc3ccc4c(cnn4Cc4ccccc4)c3)c2cc1OC.Cl [GW282449A]: 0

###

System: PRKCI
measurement setup: Compound Concentration (nM):1000
Answer 0 (no) if Percent Control is under 90%, and 1 (yes) if it is 90% or more.

* COc1cc(C)c(N(C)C(=O)CN(C)C)cc1Nc1nc(Nc2cccc(F)c2C(N)=O)c2cc[nH]c2n1 [GSK2219385] | 0 (no)
* CCc1ccc(Oc2nccc(-c3c(-c4ccc(F)cc4)ncn3C3CCNCC3)n2)cc1 [SB-242719] | 1 (yes)
* Cl.c1ccc(Cc2nc3ccc(Nc4ncnc5ccccc45)cc3[nH]2)cc1 [GR269666A] | 1 (yes)
* NS(=O)(=O)c1ccc(N/N=C2\C(=O)Nc3ccc(C(=O)NCc4ccncc4)cc32)cc1 [GW300657X] | 0 (no)
* C/C(Nc1ccc(S(N)(=O)=O)cc1)=C1/C(=O)Nc2ccccc21 [GW335962X] | 1 (yes)
* CC(C)COC(=O)c1ccc2c(c1)/C(=C/Nc1ccc(S(N)(=O)=O)cc1)C(=O)N2 [GW416981X] | 1 (yes)
* COc1ccc2cc(-c3c(-c4ccncc4)nc(-c4ccc(S(C)(=O)=O)cc4C)n3C)ccc2c1 [SB-633825] | 0 (no)
* NS(=O)(=O)c1ccc(N/N=C2\C(=O)Nc3ccc(-c4cnco4)cc32)cc1 [GW276655] | 0 (no)
* NS(=O)(=O)c1ccc(Nc2ncc(-c3ccccc3)o2)cc1 [GW572399X] | 1 (yes)
* C[C@@H](Oc1cc(-n2cnc3ccc(OC4CCN(C)CC4)cc32)sc1C(N)=O)c1ccccc1Cl [GSK579289A] | 0 (no)
* CCS(=O)(=O)c1ccc(OC)c(Nc2ncc(-c3cccc(F)c3)o2)c1 [GW621970X] | 1 (yes)
* COc1ccc2[nH]c3c4[nH]c5ccc(OC)cc5c4c4c(c3c2c1)C(=O)NC4=O [GW296115X] | 0 (no)
* COc1cc2ncn(-c3cc(O[C@H](C)c4ccccc4Cl)c(C(N)=O)s3)c2cc1OC [GSK237701A] | 0 (no)
* CN(C)CCNC(=O)Nc1ccc(N(C)c2ccnc(Nc3ccc(CS(C)(=O)=O)cc3)n2)cc1.Cl [GW830900A] | 0 (no)
* COc1cc2ncnc(Nc3ccc4c(cnn4Cc4ccccc4)c3)c2cc1OC.Cl [GW282449A] | 1 (yes)
* COc1cccc(-c2c[nH]c3c(N/N=C/c4ccncc4)ncnc23)c1 [GW814408X] | 0 (no)
* NS(=O)(=O)c1ccc(N/N=C2\C(=O)Nc3ccc(Cl)cc32)cc1 [GW280670X] | 1 (yes)
* CCn1c(-c2nonc2N)nc2c(C#CC(C)(C)O)nc(OCCNC)cc21.Cl [GSK949675] | 0 (no)
* Cc1cc(O)cc(C)c1/C=C/c1cncc(C(N)=O)c1 [GW435821X] | 1 (yes)
* COc1cc(C=NNc2ncnc3c2cnn3-c2ccccc2)ccc1O [GW513184X] | 1 (yes)
* O=C1Nc2ccc(C(=O)c3ccco3)cc2C1=Cc1cc(Cl)c(O)c(Cl)c1 [GW406108X] | 1 (yes)
